# Experimental Details: Static thermostability (GARDNER method), rigid PVC sheets, 210° C., 0.3 part stabilizer
# Measurement Conditions: 9 min
Measured Endpoint: coloration, GARDNER scale
Reply with the value as a number alone.

Input Smiles: COCCOC(=O)C1=C(C)NC(C)=C(C(=O)OCCOC)C1
Measured Endpoint: coloration, GARDNER scale
Endpoint Value: 1
--
Input Smiles: COc1ccc(COC(=O)C2=C(C)NC(C)=C(C(=O)OCc3ccc(OC)cc3)C2)cc1
Measured Endpoint: coloration, GARDNER scale
Endpoint Value: 4
--
Input Smiles: C#CCOC(=O)C1=C(C)NC(C)=C(C(=O)OCC#C)C1
Measured Endpoint: coloration, GARDNER scale
Endpoint Value: 4
--
Input Smiles: CC1=C(C(=O)OCCOc2ccccc2)CC(C(=O)OCCOc2ccccc2)=C(C)N1
Measured Endpoint: coloration, GARDNER scale
Endpoint Value: 3
--
Input Smiles: CCCCCCC1C(C(=O)OC)=C(C)NC(C)=C1C(=O)OC
Measured Endpoint: coloration, GARDNER scale
Endpoint Value: 6
--
Input Smiles: CCCCOCCOC(=O)C1=C(C)NC(C)=C(C(=O)OCCOCCCC)C1
Measured Endpoint: coloration, GARDNER scale
Endpoint Value: 2
--
Input Smiles: COC(=O)C1=C(C)NC(C)=C(C(=O)OC)C1C
Measured Endpoint: coloration, GARDNER scale
Endpoint Value: 6
--
Input Smiles: CC1=C(C(=O)OCc2ccccc2C)CC(C(=O)OCc2ccccc2C)=C(C)N1
Measured Endpoint: coloration, GARDNER scale
Endpoint Value: 3
--
Input Smiles: CCOC(=O)C1=C(Cc2ccccc2)NC(Cc2ccccc2)=C(C(=O)OCC)C1
Measured Endpoint: coloration, GARDNER scale
Endpoint Value: 4
--
Input Smiles: CCOCCOC(=O)C1=C(C)NC(C)=C(C(=O)OCCOCC)C1
Measured Endpoint: coloration, GARDNER scale
Endpoint Value: 1

Query block: For "COC(=O)C1=C(C)NC(C)=C(C(=O)OC)C1c1ccccc1" , what is its reported coloration, GARDNER scale?
Result block: 13

Query block: For "CCCCCCCCCCCCCC1=C(C(=O)OC)CC(C(=O)OC)=C(CCCCCCCCCCCCC)N1" , what is its reported coloration, GARDNER scale?
Result block: 2

Query block: For "CC1=C(C(=O)OCc2ccccc2)CC(C(=O)OCc2ccccc2)=C(C)N1" , what is its reported coloration, GARDNER scale?
Result block: 3

Query block: For "C=CCCC1=C(C(=O)OC)CC(C(=O)OC)=C(CCC=C)N1" , what is its reported coloration, GARDNER scale?
Result block: 8

Query block: For "C=CCOC(=O)C1=C(C)NC(C)=C(C(=O)OCC=C)C1" , what is its reported coloration, GARDNER scale?
Result block: 4

Query block: For "CC1=C(C(=O)OCC=Cc2ccccc2)CC(C(=O)OCC=Cc2ccccc2)=C(C)N1" , what is its reported coloration, GARDNER scale?
Result block: 4

Query block: For "CC1=C(C(=O)OCc2ccc(Cl)cc2)CC(C(=O)OCc2ccc(Cl)cc2)=C(C)N1" , what is its reported coloration, GARDNER scale?
Result block: 4

Query block: For "COC(=O)C1=C(c2ccccc2)NC(c2ccccc2)=C(C(=O)OC)C1" , what is its reported coloration, GARDNER scale?
Result block: 2

====

# Experimental Details: Static thermostability (GARDNER method), rigid PVC sheets, 185° C., 0.3 part stabilizer
# Measurement Conditions: 27 min
Measured Endpoint: coloration, GARDNER scale
Reply with the value as a number alone.

Field: example entries. Status: answers known.
Input Smiles: C#CCOC(=O)C1=C(C)NC(C)=C(C(=O)OCC#C)C1
Measured Endpoint: coloration, GARDNER scale
Endpoint Value: 7

Input Smiles: COc1ccc(COC(=O)C2=C(C)NC(C)=C(C(=O)OCc3ccc(OC)cc3)C2)cc1
Measured Endpoint: coloration, GARDNER scale
Endpoint Value: 14

Input Smiles: CC1=C(C(=O)OCCCl)CC(C(=O)OCCCl)=C(C)N1
Measured Endpoint: coloration, GARDNER scale
Endpoint Value: 10.5

Input Smiles: CC1=C(C(=O)OCc2ccccc2Cl)CC(C(=O)OCc2ccccc2Cl)=C(C)N1
Measured Endpoint: coloration, GARDNER scale
Endpoint Value: 11

Input Smiles: CC1=C(C(=O)OCc2ccccc2)CC(C(=O)OCc2ccccc2)=C(C)N1
Measured Endpoint: coloration, GARDNER scale
Endpoint Value: 12

Input Smiles: CC1=C(C(=O)OCc2ccccc2C)CC(C(=O)OCc2ccccc2C)=C(C)N1
Measured Endpoint: coloration, GARDNER scale
Endpoint Value: 11

Query block: For "C=CCOC(=O)C1=C(C)NC(C)=C(C(=O)OCC=C)C1" , what is its reported coloration, GARDNER scale?
Result block: 7

====

# Experimental Details: Static thermostability (GARDNER method), rigid PVC sheets, 185° C., equimolecular quantities
# Measurement Conditions: 1.55×10^-3 mol, 36 min
Measured Endpoint: coloration, GARDNER scale
Reply with the value as a number alone.

Compound: CC1=C(C(=O)OCc2ccccc2Cl)CC(C(=O)OCc2ccccc2Cl)=C(C)N1
coloration, GARDNER scale: 15

Shift focus to the following entry.
Query block: For c1ccc(-c2cc3ccccc3[nH]2)cc1 [2-Phenyl-indole, 2-phenyl-indole, reference compound] , what is its reported coloration, GARDNER scale?
Result block: 16

====

# Experimental Details: Static thermostability (GARDNER method), rigid PVC sheets, 185° C., equimolecular quantities
# Measurement Conditions: 1.55×10^-3 mol, 33 min
This listing pairs compounds with measured coloration, GARDNER scale.
Reply with the value as a number alone.

Field: example entries. Status: answers known.
Compound: CC1=C(C(=O)OCc2ccccc2)CC(C(=O)OCc2ccccc2)=C(C)N1
coloration, GARDNER scale: 15

Compound: CC1=C(C(=O)OCc2ccccc2Cl)CC(C(=O)OCc2ccccc2Cl)=C(C)N1
coloration, GARDNER scale: 14

Compound: c1ccc(-c2cc3ccccc3[nH]2)cc1 [2-Phenyl-indole, 2-phenyl-indole, reference compound]
coloration, GARDNER scale: 14

Shift focus to the following entry.
Query block: For "COc1ccc(COC(=O)C2=C(C)NC(C)=C(C(=O)OCc3ccc(OC)cc3)C2)cc1" , what is its reported coloration, GARDNER scale?
Result block: 15

====

This listing pairs molecules with measured coloration, GARDNER scale.
# Experimental Details: Static thermostability (GARDNER method), rigid PVC sheets, 210° C., 0.3 part stabilizer
# Measurement Conditions: 3 min
Reply with the value as a number alone.

Field: example entries. Status: answers known.
Molecule: C#CCOC(=O)C1=C(C)NC(C)=C(C(=O)OCC#C)C1 [Compound 2]
coloration, GARDNER scale: 1
--
Molecule: COC(=O)C1=C(C)NC(C)=C(C(=O)OC)C1c1ccccc1 [Compound 23]
coloration, GARDNER scale: 2
--
Molecule: CCOCCOC(=O)C1=C(C)NC(C)=C(C(=O)OCCOCC)C1 [Compound 26]
coloration, GARDNER scale: 1
--
Molecule: CC1=C(C(=O)OCc2ccccc2)CC(C(=O)OCc2ccccc2)=C(C)N1 [Compound 21]
coloration, GARDNER scale: 1
--
Molecule: CCCCCCCCCCCCCC1=C(C(=O)OC)CC(C(=O)OC)=C(CCCCCCCCCCCCC)N1 [Compound 20]
coloration, GARDNER scale: 1
--
Molecule: CC1=C(C(=O)OCc2ccc(Cl)cc2)CC(C(=O)OCc2ccc(Cl)cc2)=C(C)N1 [Compound 7]
coloration, GARDNER scale: 1
--
Molecule: CC1=C(C(=O)OCCOc2ccccc2)CC(C(=O)OCCOc2ccccc2)=C(C)N1 [Compound 28]
coloration, GARDNER scale: 1
--
Molecule: COC(=O)C1=C(C)NC(C)=C(C(=O)OC)C1C [Compound 29]
coloration, GARDNER scale: 2

Shift focus to the following entry.
Query block: For C=CCCC1=C(C(=O)OC)CC(C(=O)OC)=C(CCC=C)N1 [Compound 17] , what is its reported coloration, GARDNER scale?
Result block: 1

====

# Experimental Details: Photostabilizing power, PVC plates exposed to the sun, GARDNER scale
# Measurement Conditions: exposure to sun 6h
Measured Endpoint: Coloration of the plates GARDNER
Reply with the value as a number alone.

Compound: c1ccc(-c2cc3ccccc3[nH]2)cc1 [2-Phenyl-indole, 2-phenyl-indole, reference compound]
Coloration of the plates GARDNER: 3
--
Compound: COC(=O)C1=C(C)NC(C)=C(C(=O)OC)C1C
Coloration of the plates GARDNER: 3
--
Compound: CC1=C(C(=O)OCc2ccccc2)CC(C(=O)OCc2ccccc2)=C(C)N1
Coloration of the plates GARDNER: 1

Query block: For "C#CCOC(=O)C1=C(C)NC(C)=C(C(=O)OCC#C)C1" , what is its reported Coloration of the plates GARDNER?
Result block: 1

Query block: For COc1cc(-c2cc3ccccc3[nH]2)ccc1O [2-(3'-Methoxy-4'-hydroxy-phenyl)-indole, reference compound] , what is its reported Coloration of the plates GARDNER?
Result block: 4

Query block: For "C=CCOC(=O)C1=C(C)NC(C)=C(C(=O)OCC=C)C1" , what is its reported Coloration of the plates GARDNER?
Result block: 1

Each recorded value in this set is attributed to patent US4317768A.
